biological target: γ-secretase (Homo sapiens, UniProt P49768); construct: uses a HEK293 membrane fraction as a source of γ-secretase; endogenous in cells; host or cells: HEK293 (microsomal membrane fraction, solubilised in 0.25% CHAPSO); experiment: in vitro γ-secretase assay (HEK293 membrane fraction, recombinant APP substrate, Abeta ELISA); type: biochemical; settings: γ-secretase inhibition, table head prints none
metric: IC50 (nM)

Consider the reported IC50 for these compounds:
CC1(C)CCNC(=O)C(N(Cc2ccc(C(=O)O)cc2)S(=O)(=O)c2ccc(Cl)cc2)C1 (stereo not drawn); 70
Cc1noc(-c2ccc(CN(C3CC(C(C)C)CCNC3=O)S(=O)(=O)c3ccc(Cl)cc3)cc2)n1 (stereo not drawn); 270
O=C(NC1CC1)c1ccc(CN(C2CCCCNC2=O)S(=O)(=O)c2ccc(Cl)cc2)cc1 (racemic); 190
COC(=O)c1ccc(CN(C2CC(C(F)(F)F)CCNC2=O)S(=O)(=O)c2ccc(Cl)cc2)c(F)c1 (stereo not drawn); 20
COc1ccc(CN([C@@H]2CCCCNC2=O)S(=O)(=O)c2ccc(C(F)(F)F)cc2)c(F)c1F; 230
O=C(O)CCc1ccc(CN(C2CC(C(F)(F)F)CCNC2=O)S(=O)(=O)c2ccc(Cl)cc2)cc1 (stereo not drawn); 130
O=C1NCCCC[C@H]1N(Cc1ccc(-c2ncn[nH]2)cc1F)S(=O)(=O)c1ccc(Cl)cc1; 80
CC(C)C1CCNC(=O)C(N(Cc2ccc(C(N)=O)cc2)S(=O)(=O)c2ccc(Cl)cc2)C1 (stereo not drawn); 260

A. COc1ccc(CN(C2CCCCNC2=O)S(=O)(=O)c2ccc(Br)cc2)cc1F (racemic)
B. CC1(C)CCNC(=O)C(N(Cc2ccc(C(=O)N[C@@H]3C[C@@H]3F)cc2)S(=O)(=O)c2ccc(Cl)cc2)C1 (mixture of isomers)
Inquiry: I'd appreciate it if you could identify which of A and B has the greater IC50. Refer to your chosen item by its label in the answer.
Reply text: A
